# Tested on: ADP-Induced Platelet Aggregation
# protocolDetails: Inhibition of ADP-induced platelet aggregation in rabbit platelet-rich plasma (microplate method)
# Format: cell-based
# conditionSummary: Oryctolagus cuniculus, Platelet; rabbit PRP, inducer ADP, absorbance 655 nm; read-out: IC50 (Mean ± SE), ADP-induced platelet aggregation
pIC50: −log10 of the molar value.
Decide by pIC50: equal to or exceeding 5 means criterion met, less means criterion not met.

{"compound": "Cc1nc(-c2cccc(C#N)c2)n(OCc2ccc(C#N)cc2)c1C(=O)O [LY-27y]", "assignedClass": "criterion met"}
{"compound": "C=CCOn1c(-c2cccc(C#N)c2)nc(C)c1C(=O)O [LY-27d]", "assignedClass": "criterion met"}
{"compound": "CCOC(=O)c1c(-c2ccccc2)nc(-c2cccc(C#N)c2)n1O", "assignedClass": "criterion not met"}
{"compound": "CCOCCOn1c(-c2cccc(C#N)c2)nc(C)c1C(=O)OCC [LY-26e]", "assignedClass": "criterion met"}
{"compound": "CCOC(=O)COn1c(-c2cccc(C#N)c2)nc(C)c1C(=O)OCC [LY-26g]", "assignedClass": "criterion met"}
